Experiment: Cytotoxicity against HUVEC cells assessed as cell viability at 32 ug/ml incubated for 24 hrs by CCK8 assay relative to control
Format: toxicity, cell-based
Settings: human, at 32 µg/mL, read-out: Activity
Experimental endpoint: viability at 24 h, 32 ug/ml (%)

CCCCCCCNC(=O)C[N+](C)(C)CCCCOc1cc(C)ccc1C(C)C.[Br-]    68.7

* * *

Tested on: Pseudomonas aeruginosa
Test: Antibacterial activity against Pseudomonas aeruginosa ATCC27853 by CLSI based serial dilution method
Type: functional
The following compounds are listed with their measured MIC values.
Experimental endpoint: MIC

CCCCNC(=O)C[N+](C)(C)CCCCCOc1cc(C)ccc1C(C)C.[Br-]    > 128 µg/mL
CCCCCNC(=O)C[N+](C)(C)CCCCOc1cc(C(C)C)ccc1C.[Br-]    128 µg/mL
CCCCN(CCCC)C(=O)C[N+](C)(C)CCCOc1cc(C(C)C)ccc1C.[Br-]    > 128 µg/mL
Cc1ccc(C(C)C)c(OCCCCC[N+](C)(C)CC(=O)N(CC(C)C)CC(C)C)c1.[Br-]    128 µg/mL
CCCCN(CCCC)C(=O)C[N+](C)(C)CCCCOc1cc(C(C)C)ccc1C.[Br-]    128 µg/mL
Cc1ccc(C(C)C)cc1OCCC[N+](C)(C)CC(=O)N1CCSCC1.[Br-]    > 128 µg/mL
CCCNC(=O)C[N+](C)(C)CCCCOc1cc(C)ccc1C(C)C.[Br-]    > 128 µg/mL
Cc1ccc(C(C)C)c(OCCC[N+](C)(C)CC(=O)N2CCOCC2)c1.[Br-]    > 128 µg/mL
CCCCCCCNC(=O)C[N+](C)(C)CCCOc1cc(C)ccc1C(C)C.[Br-]    16 µg/mL
CCCCCCN(CCCCCC)C(=O)C[N+](C)(C)CCCCCOc1cc(C)ccc1C(C)C.[Br-]    > 128 µg/mL
Cc1ccc(C(C)C)c(OCCC[N+](C)(C)CC(=O)N(CC(C)C)CC(C)C)c1.[Br-]    > 128 µg/mL
CCCCNC(=O)C[N+](C)(C)CCCOc1cc(C(C)C)ccc1C.[Br-]    > 128 µg/mL
CCCCCCCNC(=O)C[N+](C)(C)CCCCCOc1cc(C(C)C)ccc1C.[Br-]    8 µg/mL
CCCCCNC(=O)C[N+](C)(C)CCCOc1cc(C)ccc1C(C)C.[Br-]    > 128 µg/mL
Cc1ccc(C(C)C)c(OCCCC[N+](C)(C)CC(=O)N2CCOCC2)c1.[Br-]    > 128 µg/mL

* * *

Measured MIC values are reported for all entries that follow.
Tested on: Pseudomonas aeruginosa
Assay: Antibacterial activity against Pseudomonas aeruginosa ATCC27853 by CLSI based serial dilution method
Format: functional
Experimental endpoint: MIC (µg/mL)

CCCCCNC(=O)C[N+](C)(C)CCCCCOc1cc(C)ccc1C(C)C.[Br-]    128
CCCCN(CCCC)C(=O)C[N+](C)(C)CCCCCOc1cc(C)ccc1C(C)C.[Br-]    128

* * *

Entries and their MIC
Test system: Enterococcus
Experiment: Antibacterial activity against vancomycin-resistant Enterococcus ATCC51299 by CLSI based serial dilution method
Format: functional
Experimental endpoint: MIC (µg/mL)

CCCCN(CCCC)C(=O)C[N+](C)(C)CCCOc1cc(C(C)C)ccc1C.[Br-]    16
CCCCCCN(CCCCCC)C(=O)C[N+](C)(C)CCCOc1cc(C)ccc1C(C)C.[Br-]    32
CCCCCNC(=O)C[N+](C)(C)CCCCCOc1cc(C)ccc1C(C)C.[Br-]    16
Cc1ccc(C(C)C)c(OCCCC[N+](C)(C)CC(=O)N(CC(C)C)CC(C)C)c1.[Br-]    16
Cc1ccc(C(C)C)cc1OCCC[N+](C)(C)CC(=O)N(CC(C)C)CC(C)C.[Br-]    16
CCCCCCN(CCCCCC)C(=O)C[N+](C)(C)CCCCCOc1cc(C(C)C)ccc1C.[Br-]    1
Cc1ccc(C(C)C)c(OCCCCC[N+](C)(C)CC(=O)N(CC(C)C)CC(C)C)c1.[Br-]    8
CCCCCCNC(=O)C[N+](C)(C)CCCCCOc1cc(C(C)C)ccc1C.[Br-]    8

* * *

Tested on: Enterococcus
Experiment: Antibacterial activity against vancomycin-resistant Enterococcus ATCC51299 by CLSI based serial dilution method
Type: functional
Lab note - cut at 20 µg/mL for MIC: satisfied if strictly below, not satisfied if not.

CCCCCCNC(=O)C[N+](C)(C)CCCCOc1cc(C)ccc1C(C)C.[Br-]    satisfied
Cc1ccc(C(C)C)c(OCCCCC[N+](C)(C)CC(=O)N2CCSCC2)c1.[Br-]    not satisfied
CCCCNC(=O)C[N+](C)(C)CCCCCOc1cc(C(C)C)ccc1C.[Br-]    not satisfied
CCCNC(=O)C[N+](C)(C)CCCCCOc1cc(C)ccc1C(C)C.[Br-]    not satisfied
Cc1ccc(C(C)C)c(OCCC[N+](C)(C)CC(=O)N2CCOCC2)c1.[Br-]    not satisfied
Cc1ccc(C(C)C)cc1OCCCC[N+](C)(C)CC(=O)N1CCOCC1.[Br-]    not satisfied
CCCN(CCC)C(=O)C[N+](C)(C)CCCCCOc1cc(C(C)C)ccc1C.[Br-]    satisfied
Cc1ccc(C(C)C)cc1OCCCCC[N+](C)(C)CC(=O)N(CC(C)C)CC(C)C.[Br-]    not satisfied
CCCCN(CCCC)C(=O)C[N+](C)(C)CCCCCOc1cc(C(C)C)ccc1C.[Br-]    not satisfied
CCCCCCCNC(=O)C[N+](C)(C)CCCCOc1cc(C(C)C)ccc1C.[Br-]    satisfied

* * *

Test system: Pseudomonas aeruginosa
Assay: Antibacterial activity against Pseudomonas aeruginosa ATCC27853 by CLSI based serial dilution method
Assay type: functional
# Lookup of reported MIC keyed by entry
Experimental endpoint: MIC

Cc1ccc(C(C)C)cc1OCCCCC[N+](C)(C)CC(=O)N1CCSCC1.[Br-]    > 128 µg/mL
Cc1ccc(C(C)C)cc1OCCCC[N+](C)(C)CC(=O)N(C(C)C)C(C)C.[Br-]    > 128 µg/mL
CCCN(CCC)C(=O)C[N+](C)(C)CCCOc1cc(C(C)C)ccc1C.[Br-]    > 128 µg/mL
